All values here come from ChEMBL document CHEMBL4385638.

Test system: Farnesyl diphosphate synthase (Toxoplasma gondii, UniProt Q197X6)
Sequence (Q197X6 whole entry): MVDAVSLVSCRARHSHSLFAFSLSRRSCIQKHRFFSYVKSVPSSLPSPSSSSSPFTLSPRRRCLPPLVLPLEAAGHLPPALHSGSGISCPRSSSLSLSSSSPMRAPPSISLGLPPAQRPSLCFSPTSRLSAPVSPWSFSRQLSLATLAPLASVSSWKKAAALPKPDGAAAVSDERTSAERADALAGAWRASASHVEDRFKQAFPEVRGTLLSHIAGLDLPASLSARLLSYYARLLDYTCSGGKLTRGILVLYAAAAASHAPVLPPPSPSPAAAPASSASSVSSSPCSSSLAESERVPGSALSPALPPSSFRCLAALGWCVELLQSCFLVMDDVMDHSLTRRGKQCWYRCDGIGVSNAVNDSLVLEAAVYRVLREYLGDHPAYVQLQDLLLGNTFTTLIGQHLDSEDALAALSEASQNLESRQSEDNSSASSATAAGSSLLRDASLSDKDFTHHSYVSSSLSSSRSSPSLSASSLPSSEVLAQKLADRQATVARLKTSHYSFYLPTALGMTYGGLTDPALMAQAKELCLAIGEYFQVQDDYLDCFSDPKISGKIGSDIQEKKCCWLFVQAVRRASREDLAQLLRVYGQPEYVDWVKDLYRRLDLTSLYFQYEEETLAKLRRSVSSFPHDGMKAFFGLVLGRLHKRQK
Experimental details: Inhibition of Toxoplasma gondii FPPS using DMAPP as substrate incubated for 30 mins measured by scintillation counting
pIC50: −log10 of the molar value.
Measured pIC50 of individual entries
Experimental readout: pIC50

                              record_smiles  experimental_readout  measured_value
0      CCCCCCCCCCNCC(F)(P(=O)(O)O)P(=O)(O)O                 pIC50            7.10
1            CCCCNCC(F)(P(=O)(O)O)P(=O)(O)O                 pIC50            6.54
2  CCCCCCCCCCS(=O)(=O)CC(P(=O)(O)O)P(=O)(O)O                 pIC50            6.57
3          CCCCCCNCC(F)(P(=O)(O)O)P(=O)(O)O                 pIC50            6.88
4           CCCCCNCC(F)(P(=O)(O)O)P(=O)(O)O                 pIC50            6.52
5       CCCCCCCCCNCC(F)(P(=O)(O)O)P(=O)(O)O                 pIC50            7.29
6         CCCCCCCNCC(F)(P(=O)(O)O)P(=O)(O)O                 pIC50            7.06
7        CCCCCCCCNCC(F)(P(=O)(O)O)P(=O)(O)O                 pIC50            7.10
8             CCCNCC(F)(P(=O)(O)O)P(=O)(O)O                 pIC50            6.61
